Each item that follows carries a reported activity at 10 µM.
biological target: human furin (Homo sapiens, UniProt P09958); assay: Human furin inhibition, hydrolysis of Ac-RVRR-MCA; assay type: biochemical; conditions: 10 μM inhibitor, 36.5° C.
Sequence (P09958 108-794): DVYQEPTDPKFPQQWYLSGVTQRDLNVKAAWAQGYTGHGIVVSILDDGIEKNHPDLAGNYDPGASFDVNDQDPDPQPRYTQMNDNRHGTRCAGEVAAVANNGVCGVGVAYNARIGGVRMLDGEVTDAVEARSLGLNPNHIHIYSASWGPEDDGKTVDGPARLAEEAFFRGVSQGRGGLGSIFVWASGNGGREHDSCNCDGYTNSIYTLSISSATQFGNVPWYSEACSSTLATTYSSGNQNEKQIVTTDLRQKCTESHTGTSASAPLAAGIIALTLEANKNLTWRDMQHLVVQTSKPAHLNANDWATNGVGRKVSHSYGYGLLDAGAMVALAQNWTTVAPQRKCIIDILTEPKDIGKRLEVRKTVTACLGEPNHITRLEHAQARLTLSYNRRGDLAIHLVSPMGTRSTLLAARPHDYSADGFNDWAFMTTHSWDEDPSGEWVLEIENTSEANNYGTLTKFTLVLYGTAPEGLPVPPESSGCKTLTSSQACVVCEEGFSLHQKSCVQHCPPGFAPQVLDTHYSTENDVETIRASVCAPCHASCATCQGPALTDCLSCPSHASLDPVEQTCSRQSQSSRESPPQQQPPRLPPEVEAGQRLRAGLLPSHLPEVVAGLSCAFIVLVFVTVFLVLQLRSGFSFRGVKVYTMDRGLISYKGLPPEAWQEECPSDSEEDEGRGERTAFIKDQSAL
Residues, ends and D or L forms follow the SMILES beside them.
readout.label: activity at 10 µM (%)

{"columns": ["compound", "readout.label", "numeric.readout"],
 "data": [
  ["CCCCCCCCCCCCCCCCNC(=O)[C@H](CCCCN)NC(=O)[C@H](C)NC(=O)[C@H](CCCCN)NC(=O)CCCCCCCCCCCCCCC [C16-KAK-C16]", "activity at 10 µM", 10],
  ["CCCCCCCCCCCCCCCCNC(=O)[C@H](CCCCN)NC(=O)[C@H](C)NC(=O)[C@H](C)NC(=O)[C@H](CCCCN)NC(=O)CCCCCCCCCCCCCCC [C16-KAAK-C16] (HELM PEPTIDE1{[CCCCCCCCCCCCCCCC(=O)[*:2]].K.A.A.K.[CCCCCCCCCCCCCCCCN[*:1]]}$$$$V2.0)", "activity at 10 µM", 77],
  ["CCCCCCCCCCCCCCCCNC(=O)[C@H](CCCCN)NC(=O)[C@H](C)NC(=O)[C@H](C)NC(=O)[C@H](C)NC(=O)[C@H](CCCCN)NC(=O)CCCCCCCCCCCCCCC [C16-KAAAK-C16] (HELM PEPTIDE1{[CCCCCCCCCCCCCCCC(=O)[*:2]].K.A.A.A.K.[CCCCCCCCCCCCCCCCN[*:1]]}$$$$V2.0)", "activity at 10 µM", 24],
  ["CCCCCCCCCCCCCCCCNC(=O)[C@H](CCCCN)NC(=O)[C@H](C)NC(=O)[C@H](C)NC(=O)[C@H](C)NC(=O)[C@H](C)NC(=O)[C@H](CCCCN)NC(=O)CCCCCCCCCCCCCCC [C16-KAAAAK-C16] (HELM PEPTIDE1{[CCCCCCCCCCCCCCCC(=O)[*:2]].K.A.A.A.A.K.[CCCCCCCCCCCCCCCCN[*:1]]}$$$$V2.0)", "activity at 10 µM", 52]
]}
